B1: Dystrobrevin alpha, residues 235 to 294; numbered along this chain, Q9Y4J8 (parent)
chain: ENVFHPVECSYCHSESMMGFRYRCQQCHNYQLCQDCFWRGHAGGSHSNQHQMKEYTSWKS

# Variants of: B1
# Protocol Text: abundance fitness (aPCA) (normalised: wild type 0, dead -1); higher = more abundant; growth selection in yeast, the domain comes from the species named
# Experimental Conditions: Homo sapiens
As shown below, each of these variants has a reported abundance fitness value.
Test Readout: abundance fitness

sequence_code="ENVFHPVECSYCHSESMMGFRYRCQQCHNYQLCQDCRWRGHAGGSHSNQHQMKEYTSWKS [F37R]" assay_value=-0.098
sequence_code="ENVFHPVECSYCHSESMMGFRYRCAQCHNYQLCQDCFWRGHAGGSHSNQHQMKEYTSWKS [Q25A]" assay_value=-0.213
sequence_code="ENVFHPVECSYCHSESMMGFRYRCQQCHNYQLCQDCFWRGHAGCSHSNQHQMKEYTSWKS [G44C]" assay_value=-0.362
sequence_code="ENVFHPVECSYNHSESMMGFRYRCQQCHNYQLCQDCFWRGHAGGSHSNQHQMKEYTSWKS [C12N]" assay_value=-0.746
sequence_code="ENVFQPVECSYCHSESMMGFRYRCQQCHNYQLCQDCFWRGHAGGSHSNQHQMKEYTSWKS [H5Q]" assay_value=-0.195
sequence_code="ENVFHGVECSYCHSESMMGFRYRCQQCHNYQLCQDCFWRGHAGGSHSNQHQMKEYTSWKS [P6G]" assay_value=-0.063
sequence_code="ENVFHPVECSYCHSESMMGFRYRCQQCHNYQLCQDCFWRGHAGGSHSNQHQCKEYTSWKS [M52C]" assay_value=-0.194
sequence_code="ENVFHPVECSYCHSESPMGFRYRCQQCHNYQLCQDCFWRGHAGGSHSNQHQMKEYTSWKS [M17P]" assay_value=-0.008
sequence_code="ENVFHPVECSYCHSESMMGFRYRCQSCHNYQLCQDCFWRGHAGGSHSNQHQMKEYTSWKS [Q26S]" assay_value=-0.024
sequence_code="ENVFHPVECSYCHSESMMGFRYRCQQCHNYQLCQDCFWRGHAGGSHSNYHQMKEYTSWKS [Q49Y]" assay_value=-0.256
sequence_code="ENVFHPVECSYCHSESMMGFRYRCQQCHNYQLCQDCFWRGHAGGSHSNQHQMKEYTSWKF [S60F]" assay_value=0.02
sequence_code="ENVFHPVECSYCHSESMMGFRYRCQQCHNYQLCQDCFWRGHAGGSHSNQHQMFEYTSWKS [K53F]" assay_value=-0.313
sequence_code="ENVFHVVECSYCHSESMMGFRYRCQQCHNYQLCQDCFWRGHAGGSHSNQHQMKEYTSWKS [P6V]" assay_value=-0.089
sequence_code="ENVFHPVECSYCHSESMMGFRYRCQQCHYYQLCQDCFWRGHAGGSHSNQHQMKEYTSWKS [N29Y]" assay_value=-0.204
sequence_code="PNVFHPVECSYCHSESMMGFRYRCQQCHNYQLCQDCFWRGHAGGSHSNQHQMKEYTSWKS [E1P]" assay_value=-0.076
sequence_code="ENVFHPVECSYCHSESMMGFRYRCQQCHNYQLCQDCFWRGHAGGSMSNQHQMKEYTSWKS [H46M]" assay_value=-0.17
sequence_code="ENVFHPVECSYCHSESMMGFRYRCQQCHNYQLDQDCFWRGHAGGSHSNQHQMKEYTSWKS [C33D]" assay_value=-0.894
sequence_code="ENVFHPVECSYCHSESMMGFRYRCQQCHNYQLHQDCFWRGHAGGSHSNQHQMKEYTSWKS [C33H]" assay_value=-0.659
sequence_code="ENVFHNVECSYCHSESMMGFRYRCQQCHNYQLCQDCFWRGHAGGSHSNQHQMKEYTSWKS [P6N]" assay_value=0.049
sequence_code="ENVFHPVECSRCHSESMMGFRYRCQQCHNYQLCQDCFWRGHAGGSHSNQHQMKEYTSWKS [Y11R]" assay_value=-0.37
sequence_code="ENVFHPVECSYCHSESMMGFRYRCCQCHNYQLCQDCFWRGHAGGSHSNQHQMKEYTSWKS [Q25C]" assay_value=-0.102
sequence_code="ENVFHPVECSYCHSESMMGFRYRCQQCHNYQLCQDCFWRGHAGGSHSNQHNMKEYTSWKS [Q51N]" assay_value=-0.095

Value source: the Human Domainome abundance scans (Beltran et al. 2025)
